Data origin: patent US20260217698A1

molecular target: VEGFR2 (Homo sapiens); test: Kinase inhibition, Mobility Shift Assay/IMAP, VEGFR2; type: biochemical; parameters: purchased Carna 08-191
Sequence (P35968 790-1356 limits assumed): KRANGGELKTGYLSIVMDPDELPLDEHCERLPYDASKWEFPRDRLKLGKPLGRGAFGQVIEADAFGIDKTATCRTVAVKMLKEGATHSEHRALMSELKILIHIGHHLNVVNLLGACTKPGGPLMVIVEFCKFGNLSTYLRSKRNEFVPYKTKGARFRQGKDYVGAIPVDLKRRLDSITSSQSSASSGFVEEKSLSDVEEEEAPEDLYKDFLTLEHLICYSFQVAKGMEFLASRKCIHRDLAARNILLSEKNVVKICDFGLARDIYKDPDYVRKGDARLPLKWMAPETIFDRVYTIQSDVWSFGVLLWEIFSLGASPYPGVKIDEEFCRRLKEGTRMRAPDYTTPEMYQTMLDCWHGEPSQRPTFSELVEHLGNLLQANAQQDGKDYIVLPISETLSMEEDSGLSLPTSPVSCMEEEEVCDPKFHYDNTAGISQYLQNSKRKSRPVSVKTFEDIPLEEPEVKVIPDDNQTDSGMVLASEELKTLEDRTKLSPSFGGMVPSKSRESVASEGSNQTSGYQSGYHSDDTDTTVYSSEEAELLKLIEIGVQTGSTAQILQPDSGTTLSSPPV
pIC50: −log10 of the molar value.
EXPERIMENTAL_READOUT: pIC50

>>> print(df.to_string())
                               query_smiles  experimental_readout  test_value
0  CCNC(=O)c1ccc(F)c(COc2nsc(NC(=O)NCCC3CCN(CCF)CC3)c2C(N)=O)c1                 pIC50        8.52

a: NC(=O)c1c(OCc2cc3c(cc2F)CCO3)nsc1NC(=O)NCCCCN1CC[C@@H](O)C1
b: CN1CCN(CCNC(=O)Nc2snc(OCc3cccc(C(=O)NC4CC4)c3)c2C(N)=O)CC1
Identify the item whose pIC50 is the smaller number: a or b Bench note: the answer is the label of the chosen record.
b
